assay: binders of probe aHhip on microarray, primary screen, stem cell growth factor project, biochemical, small-molecule microarray, fluorescence 635/667 (AID 1087); conditions: higher = more signal;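 also: score merges spot fluorescence at 667nm with spot signal to noise ratio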
Binning rule for recorded composite z-score: lower level = under -0.1, middle level = from -0.1 up to -0.06, upper level = -0.06 and over

>  <COMPOUND>
C[C@H]1NC(=O)[C@@H](C)NC(=O)[C@@]23C(=O)N[C@@H](Cc4ccccc4)C2[C@H](C)[C@@]2(C)O[C@H]2C3/C=C/C/C=C\CNC1=O (stereo not given in full)

>  <CLASS_NAME>
lower level

$$$$
>  <COMPOUND>
C[C@H]1C2[C@H](Cc3ccccc3)NC(=O)[C@]23C(=O)N[C@H](Cc2ccccc2)C(=O)N[C@@H](Cc2ccccc2)C(=O)NC/C=C\C/C=C/C3[C@@H]2O[C@]12C (stereo not given in full)

>  <CLASS_NAME>
upper level

$$$$
>  <COMPOUND>
COCCOC(=O)N1C(=O)[C@@]2(c3cc(C#CC4=CCCCC4)ccc31)[C@H](C(=O)NC[C@H](O)c1ccccc1)[C@H]1C(=O)O[C@H](c3ccccc3)[C@H](c3ccccc3)N1[C@@H]2c1ccc(OCCO)cc1

>  <CLASS_NAME>
middle level

$$$$
>  <COMPOUND>
COC(=O)[C@@]1(Cc2ccccc2CN=[N+]=[N-])N=C(c2ccc(OCCCO)cc2)O[C@H]1c1ccccc1N=[N+]=[N-]

>  <CLASS_NAME>
upper level

$$$$
>  <COMPOUND>
COc1ccc(-c2ccccc2[C@@H]2N[C@H](C(=O)O)CC[C@H]2C)cc1

>  <CLASS_NAME>
lower level

$$$$
>  <COMPOUND>
Cc1ccc(S(=O)(=O)N[C@H]2COC(=O)CC=C[C@H](C)COC(=O)N[C@@H](C)C(=O)CC=C[C@@H]2C)cc1

>  <CLASS_NAME>
upper level

$$$$
>  <COMPOUND>
O=C1OCCC/C=C\[C@H]2OC34C=CCN(CCN5CCOCC5)C(=O)[C@H]3N(CCCCCO)C(=O)[C@@H]4C12 (stereo not given in full)

>  <CLASS_NAME>
lower level

$$$$
>  <COMPOUND>
CO[C@@H]1COC(=O)CC=C[C@H](C)COC(=O)[C@H](Cc2ccccc2)NC(=O)CC=C[C@H]1C

>  <CLASS_NAME>
lower level

$$$$
>  <COMPOUND>
CC[C@@H]1C=C(C(=O)O)[C@H](c2ccccc2)N1S(=O)(=O)c1ccc([N+](=O)[O-])cc1

>  <CLASS_NAME>
middle level

$$$$
>  <COMPOUND>
O=C1O[C@@H](c2ccccc2)[C@@H](c2ccccc2)N2[C@@H](c3ccccc3OCCO)[C@]3(C(=O)Nc4ccc(C#CC5=CCCCC5)cc43)[C@@H](C(=O)O)[C@H]12

>  <CLASS_NAME>
lower level

$$$$
>  <COMPOUND>
CSCC[C@@H]1NC(=O)CC=C[C@@H](C)COC(=O)[C@H](CCSC)NC(=O)CC=C[C@@H](C)COC1=O

>  <CLASS_NAME>
upper level

$$$$
>  <COMPOUND>
COc1ccc([C@H]2C[C@H]3C(Br)=C[C@]2(OC)C(=O)[C@]32CO2)cc1

>  <CLASS_NAME>
upper level

$$$$
>  <COMPOUND>
C=CCN1C(=O)[C@@]2(O[C@@H](CCn3cc([C@H](O)c4ccccc4)nn3)[C@H]([Si](C)(C)c3ccc(OC)cc3)[C@H]2C)c2cc(N3CCOC3=O)ccc21

>  <CLASS_NAME>
middle level

$$$$
>  <COMPOUND>
O=C1OCC=C[C@H]2OC34C=CCN(Cc5ccccc5)C(=O)[C@H]3N(CCO)C(=O)[C@@H]4[C@@H]12 (stereo not given in full)

>  <CLASS_NAME>
lower level

$$$$
>  <COMPOUND>
C[C@@H]1NC(=O)[C@H](Cc2ccccc2)NC(=O)[C@@]23C(=O)N[C@@H](Cc4ccccc4)C2[C@H](C)[C@@]2(C)O[C@H]2C3/C=C/C/C=C\CNC1=O (stereo not given in full)

>  <CLASS_NAME>
upper level

$$$$
>  <COMPOUND>
CO[C@@H]1COC(=O)[C@@H]2CCCN2C(=O)CC=C[C@@H](C)[C@H](OC)COC(=O)[C@@H]2CCCN2C(=O)CC=C[C@H]1C

>  <CLASS_NAME>
upper level

$$$$
>  <COMPOUND>
O=C1C2C=CC(C(O)C#Cc3ccccc3)N(Nc3ccccc3)C2C(=O)N1c1ccccc1 (stereo not given)

>  <CLASS_NAME>
lower level

$$$$
>  <COMPOUND>
COc1ccc([Si](C)(C)[C@@H]2[C@@H](CCO)O[C@]3(C(=O)N(Cc4ccc(NC(=O)[C@H](C)O)cc4)c4ccccc43)[C@H]2C)cc1

>  <CLASS_NAME>
middle level

$$$$
>  <COMPOUND>
CCN1C(C)=C(C(=O)OC)[C@@H](c2ccccc2)N2C(=O)[C@](O)(C(=O)OC)[C@@H](c3ccccc3)C(C(C)=O)=C12

>  <CLASS_NAME>
lower level

$$$$
>  <COMPOUND>
C=C(CCCC)/C(=C/C[C@H](OC(=O)c1ccncc1)c1cccc(OCCO)c1)c1cc(C(=O)OC)ccc1OC

>  <CLASS_NAME>
upper level

$$$$

Reference for the values: PubChem BioAssay
